Origin of values: PubChem BioAssay

Record form. Attribute: RAM network inhibition. Fill in for each entry.
Assay: RAM signaling pathway blockade in yeast – S. cerevisiae, Pdr1DBD-CYC8 efflux-inhibited sensitized strain, primary screen (AID 1298);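 note: 0% = DMSO untreated cells without growth and 100% = 10 µM 1-NA-PP1 full growth; higher means more yeast growth rescued from 5-FOA killing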
Settings: S. cerevisiae cbk1-as DSE1-URA3 strain, 5-FOA growth OD615, 2 d; at 50 µM; hits give high values
Your answer should be a plain number; it is taken to be in %.

Prompt: Provide measured RAM network inhibition value, entry: COc1ccccc1N1CCN(c2nc(N)c(C#N)c(CC#N)c2C#N)CC1
Completion: 3.57

Prompt: Provide measured RAM network inhibition value, entry: Cc1ccc2nc(NC(=O)Cn3cc4c(n3)CCCCC4)sc2c1
Completion: 3.93

Prompt: Provide measured RAM network inhibition value, entry: Cc1c(NS(=O)(=O)c2ccccc2)cc(Cl)c(O)c1C
Completion: 6.75

Prompt: Provide measured RAM network inhibition value, entry: COC(=O)Cn1ncc2c(C)n(Cc3ccccc3)c(C)c2c1=O
Completion: 2.88

Prompt: Provide measured RAM network inhibition value, entry: Cc1ccc(S(=O)(=O)Cc2ccc(C(=O)N3CCN(Cc4ccccc4)CC3)o2)cc1
Completion: 6.48

Prompt: Provide measured RAM network inhibition value, entry: COc1ccccc1S(=O)(=O)Cc1ccc(C(=O)N2CCOCC2)o1
Completion: 0.78

Prompt: Provide measured RAM network inhibition value, entry: O=C(NC(C(=O)c1ccccc1)N1CCOCC1)c1ccccc1 (stereo unspecified)
Completion: 1.98

Prompt: Provide measured RAM network inhibition value, entry: CN(C)c1ccc(C(=O)Nc2nnc(-c3ccc(Cl)cc3)o2)cc1
Completion: 2.45

Prompt: Provide measured RAM network inhibition value, entry: O=C(C1CC1)N1CCc2cc(Br)cc(S(=O)(=O)N3CCOCC3)c21
Completion: 2.33

Prompt: Provide measured RAM network inhibition value, entry: Cc1cc(C)cc(N(CC(=O)NC2CCC(C)CC2)S(=O)(=O)c2c(C)noc2C)c1 (stereo unspecified)
Completion: 11.3

Prompt: Provide measured RAM network inhibition value, entry: CC1=C(C)CC2C(=O)N(c3cccc4ccccc34)C(=O)C2C1 (stereo unspecified)
Completion: 2.23

---

Assay: S. cerevisiae growth inhibition in permissive medium (OD615), pilot counter-assay for S. cerevisiae lifespan shortening project, permissive growth control (AID 705)
Details: OD615, 24 h, at 10 µM, hits give high values
Record form. Attribute: growth inhibition. Fill in for each entry.
Your answer should be a plain number; it is taken to be in %.

Prompt: Provide measured growth inhibition value, entry: FC(F)(F)COc1nc(N2CCCCC2)nc(N2CCNCC2)n1
Completion: 4.64

Prompt: Provide measured growth inhibition value, entry: Cn1c(C(=O)NCCCN2CCCCCC2)cc2c(=O)n(C)c3ccccc3c21
Completion: -1.14

Prompt: Provide measured growth inhibition value, entry: CCn1cc(C(=O)NCCC2=CCCCC2)c(=O)c2cc(S(=O)(=O)N(C)C)ccc21
Completion: -14.2

Prompt: Provide measured growth inhibition value, entry: O=C1C(Cl)=C(NCC2CCCO2)C(=O)N1C1CCCCC1 (stereo unspecified)
Completion: -2.76

Prompt: Provide measured growth inhibition value, entry: COc1ccc(CNC(=O)c2ccc(CN3CCOCC3)cc2)cc1
Completion: -8.78

Prompt: Provide measured growth inhibition value, entry: N#Cc1cc2c(nc1SCC(=O)N1CCCCC1)CCCC2
Completion: -16.8

Prompt: Provide measured growth inhibition value, entry: CCOc1ccc(C2CC(c3ccccc3C)n3nc(N)nc3N2)cc1 (stereo unspecified)
Completion: -4.05

Prompt: Provide measured growth inhibition value, entry: CCn1cc(C(=O)NCCCOC)c(=O)c2cc(S(=O)(=O)N(C)C)ccc21
Completion: -8.04

Prompt: Provide measured growth inhibition value, entry: COc1ccc(C/C(N)=N/n2cnnc2)cc1Cl
Completion: -9.88

Prompt: Provide measured growth inhibition value, entry: O=C(NCCCN1CCOCC1)c1ccc(CS(=O)(=O)c2c(Cl)cccc2Cl)o1
Completion: -11.8

Prompt: Provide measured growth inhibition value, entry: O=C(Cc1c(C(=O)O)[nH]c2ccccc12)NC1CCN(Cc2ccccc2)CC1
Completion: -9.14
